- system tested: Transmembrane protease serine 6 (Homo sapiens, UniProt Q8IU80)
- Sequence (Q8IU80 whole entry): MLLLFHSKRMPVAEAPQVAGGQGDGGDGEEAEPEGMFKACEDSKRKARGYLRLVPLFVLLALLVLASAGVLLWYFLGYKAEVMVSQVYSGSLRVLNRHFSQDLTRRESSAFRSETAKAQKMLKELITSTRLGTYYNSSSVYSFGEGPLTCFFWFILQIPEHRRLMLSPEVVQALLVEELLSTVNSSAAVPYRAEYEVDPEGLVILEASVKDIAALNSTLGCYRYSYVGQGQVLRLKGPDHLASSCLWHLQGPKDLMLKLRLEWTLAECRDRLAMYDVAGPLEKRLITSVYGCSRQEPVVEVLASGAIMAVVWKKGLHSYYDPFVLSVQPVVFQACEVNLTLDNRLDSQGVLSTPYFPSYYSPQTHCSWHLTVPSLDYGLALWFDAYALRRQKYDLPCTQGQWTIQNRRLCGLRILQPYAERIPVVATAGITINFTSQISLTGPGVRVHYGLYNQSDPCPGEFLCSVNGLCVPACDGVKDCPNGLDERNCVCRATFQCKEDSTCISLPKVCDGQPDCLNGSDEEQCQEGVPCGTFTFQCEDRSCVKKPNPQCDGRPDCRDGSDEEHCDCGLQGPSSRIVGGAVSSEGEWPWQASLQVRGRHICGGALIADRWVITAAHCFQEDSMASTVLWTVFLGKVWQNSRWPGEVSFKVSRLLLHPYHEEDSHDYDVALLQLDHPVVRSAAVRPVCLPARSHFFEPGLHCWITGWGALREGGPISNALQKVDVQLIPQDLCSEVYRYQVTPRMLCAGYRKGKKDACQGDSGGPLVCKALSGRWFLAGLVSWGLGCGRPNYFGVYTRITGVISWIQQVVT
Listed here: items and their measured pKi.
Recall that pKi is obtained by taking minus log10 of the concentration measured in molar.

- CCNC(=O)NCCC1CCN(C(=O)[C@H](Cc2cccc(C(=N)N)c2)NS(=O)(=O)c2cccc(NC(=O)CCN)c2)CC1: 6.34

Q: I'd like to know its pKi. The molecule in question is COc1ccc(-c2cccc(S(=O)(=O)N[C@@H](Cc3cccc(C(=N)N)c3)C(=O)N3CCC(NC(=O)NC4CCCCC4)CC3)c2)c(OC)c1
Ans: 5.85

Q: I'd like to know its pKi. The molecule in question is COc1ccc(-c2cccc(S(=O)(=O)N[C@@H](Cc3cccc(C(=N)N)c3)C(=O)N3CCC(CCN)CC3)c2)c(OC)c1
Ans: 6.51

Q: I'd like to know its pKi. The molecule in question is N=C(N)c1cccc(C[C@H](NS(=O)(=O)c2cccc(NC(=O)CCN)c2)C(=O)N2CCC(NC(N)=O)CC2)c1
Ans: 5.41

Q: I'd like to know its pKi. The molecule in question is CNC(=O)CCCC1CCN(C(=O)[C@H](Cc2cccc(C(=N)N)c2)NS(=O)(=O)c2cccc(-c3ccc(Cl)c(Cl)c3)c2)CC1
Ans: 5.80

Q: I'd like to know its pKi. The molecule in question is CNC(=O)NC1CCN(C(=O)[C@H](Cc2cccc(C(=N)N)c2)NS(=O)(=O)c2cccc(NC(=O)CCN)c2)CC1
Ans: 5.89

====

As an illustration, consider measured Ki for molecules on Coagulation factor X (Homo sapiens).
Sequence (P00742 41-179 limits assumed): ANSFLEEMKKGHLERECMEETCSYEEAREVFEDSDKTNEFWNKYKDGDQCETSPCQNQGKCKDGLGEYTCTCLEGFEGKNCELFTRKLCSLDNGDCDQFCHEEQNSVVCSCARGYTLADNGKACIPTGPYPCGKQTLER
Sequence (P00742 235-488 limits assumed): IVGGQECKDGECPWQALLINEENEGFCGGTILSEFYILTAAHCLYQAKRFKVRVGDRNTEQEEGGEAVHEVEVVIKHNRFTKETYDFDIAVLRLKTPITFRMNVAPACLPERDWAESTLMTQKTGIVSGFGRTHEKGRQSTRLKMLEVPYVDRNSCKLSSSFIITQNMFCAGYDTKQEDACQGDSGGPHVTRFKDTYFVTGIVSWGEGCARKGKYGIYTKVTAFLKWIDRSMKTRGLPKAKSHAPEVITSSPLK
Field format: number, assumed µM, no unit text.

- N=C(N)c1cccc(C[C@H](NS(=O)(=O)c2cccc(NC(=O)CCN)c2)C(=O)N2CCC(CCNC(=O)Nc3ccccc3)CC2)c1: 2.61
- N=C(N)c1cccc(C[C@H](NS(=O)(=O)c2cccc(-c3ccc(Cl)cc3Cl)c2)C(=O)N2CCC(CCN)CC2)c1: 0.05
- CCNC(=O)NC1CCN(C(=O)[C@H](Cc2cccc(C(=N)N)c2)NS(=O)(=O)c2cccc(NC(=O)CCN)c2)CC1: 8.89

Q: I'd like to know its Ki. The molecule in question is N=C(N)c1cccc(C[C@H](NS(=O)(=O)c2cccc(-c3ccccc3F)c2)C(=O)N2CCC(CCN)CC2)c1
Ans: 0.81

====

As an illustration, consider measured Ki for compounds on Suppressor of tumorigenicity 14 protein (Homo sapiens, UniProt Q9Y5Y6).
Sequence (Q9Y5Y6 whole entry): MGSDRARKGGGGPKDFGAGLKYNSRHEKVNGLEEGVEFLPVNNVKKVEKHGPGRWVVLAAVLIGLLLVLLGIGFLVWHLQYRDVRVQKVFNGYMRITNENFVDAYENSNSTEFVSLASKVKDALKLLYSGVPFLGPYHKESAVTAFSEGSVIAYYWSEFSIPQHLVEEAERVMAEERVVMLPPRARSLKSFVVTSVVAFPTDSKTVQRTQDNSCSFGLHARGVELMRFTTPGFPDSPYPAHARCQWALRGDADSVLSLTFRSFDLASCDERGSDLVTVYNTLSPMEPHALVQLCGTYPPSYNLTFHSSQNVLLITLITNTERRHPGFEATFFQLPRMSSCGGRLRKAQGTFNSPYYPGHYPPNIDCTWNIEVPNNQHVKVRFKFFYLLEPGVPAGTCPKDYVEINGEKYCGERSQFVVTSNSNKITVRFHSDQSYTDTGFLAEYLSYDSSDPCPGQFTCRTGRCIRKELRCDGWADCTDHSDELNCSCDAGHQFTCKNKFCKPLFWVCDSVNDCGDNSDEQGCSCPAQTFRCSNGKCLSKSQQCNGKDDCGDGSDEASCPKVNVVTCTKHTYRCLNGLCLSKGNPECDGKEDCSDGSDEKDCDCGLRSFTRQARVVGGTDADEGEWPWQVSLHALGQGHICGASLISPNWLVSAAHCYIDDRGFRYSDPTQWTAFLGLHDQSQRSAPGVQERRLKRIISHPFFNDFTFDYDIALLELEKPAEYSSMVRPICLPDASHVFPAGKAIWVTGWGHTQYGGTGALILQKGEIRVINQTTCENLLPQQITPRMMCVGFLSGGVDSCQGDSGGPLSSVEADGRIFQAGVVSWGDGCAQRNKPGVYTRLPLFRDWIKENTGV
Field format: number, assumed µM, no unit text.

* N=C(N)c1cccc(C[C@H](NS(=O)(=O)c2cccc(-c3ccc(Cl)cc3Cl)c2)C(=O)N2CCC(CCN)CC2)c1 | 0.002
* CCOc1ccc(-c2cccc(S(=O)(=O)N[C@@H](Cc3cccc(C(=N)N)c3)C(=O)N3CCC(CCN)CC3)c2)c(Cl)c1 | 0.013
* CNC(=O)NCCC1CCN(C(=O)[C@H](Cc2cccc(C(=N)N)c2)NS(=O)(=O)c2cccc(-c3ccc(OC)cc3OC)c2)CC1 | 0.0018
* CNC(=O)CCCC1CCN(C(=O)[C@H](Cc2cccc(C(=N)N)c2)NS(=O)(=O)c2cccc(-c3ccccc3F)c2)CC1 | 0.12
* CNC(=O)CCCC1CCN(C(=O)[C@H](Cc2cccc(C(=N)N)c2)NS(=O)(=O)c2cccc(-c3cccc(Cl)c3Cl)c2)CC1 | 0.051
* N=C(N)c1cccc(C[C@H](NS(=O)(=O)c2cccc(NC(=O)CCN)c2)C(=O)N2CCC(NC(=O)NCc3ccccc3)CC2)c1 | 0.026

Q: I'd like to know its Ki. The compound in question is COc1ccc(-c2cccc(S(=O)(=O)N[C@@H](Cc3cccc(C(=N)N)c3)C(=O)N3CCC(NC(=O)NC4CCCCC4)CC3)c2)c(OC)c1
Ans: 0.0027

Q: I'd like to know its Ki. The compound in question is N=C(N)c1cccc(C[C@H](NS(=O)(=O)c2cccc(-c3cccc(F)c3)c2)C(=O)N2CCC(CCN)CC2)c1
Ans: 0.052

Q: I'd like to know its Ki. The compound in question is CNC(=O)NCCC1CCN(C(=O)[C@H](Cc2cccc(C(=N)N)c2)NS(=O)(=O)c2cccc(-c3ccc(Cl)cc3Cl)c2)CC1
Ans: 0.0009

====

- system tested: Prothrombin (Bos taurus, UniProt P00735)
pKi: −log10 of the molar value.
Class Condition met: pKi at least 7. Class Condition not met: pKi below 7.

• COc1ccc(-c2cccc(S(=O)(=O)N[C@@H](Cc3cccc(C(=N)N)c3)C(=O)N3CCC(CCN)CC3)c2)c(OC)c1 = Condition met
• N=C(N)c1cccc(C[C@H](NS(=O)(=O)c2cccc(-c3ccccc3F)c2)C(=O)N2CCC(CCN)CC2)c1 = Condition met
• N=C(N)c1cccc(C[C@H](NS(=O)(=O)c2cccc(-c3cccc(F)c3)c2)C(=O)N2CCC(CCN)CC2)c1 = Condition met
• N=C(N)c1cccc(C[C@H](NS(=O)(=O)c2cccc(NC(=O)CCN)c2)C(=O)N2CCC(CCNC(=O)Nc3ccccc3)CC2)c1 = Condition not met

Q: Does the reported pKi for N=C(N)c1cccc(C[C@H](NS(=O)(=O)c2cccc(-c3ccc(Cl)cc3Cl)c2)C(=O)N2CCC(CCN)CC2)c1 fall at or above the 7 mark?
Ans: Condition met

Q: Does the reported pKi for CNC(=O)CCCC1CCN(C(=O)[C@H](Cc2cccc(C(=N)N)c2)NS(=O)(=O)c2cccc(-c3ccccc3F)c2)CC1 fall at or above the 7 mark?
Ans: Condition met

Q: Does the reported pKi for N=C(N)c1cccc(C[C@H](NS(=O)(=O)c2cccc(-c3ccc(Cl)cc3Cl)c2)C(=O)N2CCC(NC(=O)NC3CCCCC3)CC2)c1 fall at or above the 7 mark?
Ans: Condition not met

====

Listed here: items and their measured pKi.
- system tested: Transmembrane protease serine 6 (Homo sapiens)
- Sequence (Q8IU80 whole entry): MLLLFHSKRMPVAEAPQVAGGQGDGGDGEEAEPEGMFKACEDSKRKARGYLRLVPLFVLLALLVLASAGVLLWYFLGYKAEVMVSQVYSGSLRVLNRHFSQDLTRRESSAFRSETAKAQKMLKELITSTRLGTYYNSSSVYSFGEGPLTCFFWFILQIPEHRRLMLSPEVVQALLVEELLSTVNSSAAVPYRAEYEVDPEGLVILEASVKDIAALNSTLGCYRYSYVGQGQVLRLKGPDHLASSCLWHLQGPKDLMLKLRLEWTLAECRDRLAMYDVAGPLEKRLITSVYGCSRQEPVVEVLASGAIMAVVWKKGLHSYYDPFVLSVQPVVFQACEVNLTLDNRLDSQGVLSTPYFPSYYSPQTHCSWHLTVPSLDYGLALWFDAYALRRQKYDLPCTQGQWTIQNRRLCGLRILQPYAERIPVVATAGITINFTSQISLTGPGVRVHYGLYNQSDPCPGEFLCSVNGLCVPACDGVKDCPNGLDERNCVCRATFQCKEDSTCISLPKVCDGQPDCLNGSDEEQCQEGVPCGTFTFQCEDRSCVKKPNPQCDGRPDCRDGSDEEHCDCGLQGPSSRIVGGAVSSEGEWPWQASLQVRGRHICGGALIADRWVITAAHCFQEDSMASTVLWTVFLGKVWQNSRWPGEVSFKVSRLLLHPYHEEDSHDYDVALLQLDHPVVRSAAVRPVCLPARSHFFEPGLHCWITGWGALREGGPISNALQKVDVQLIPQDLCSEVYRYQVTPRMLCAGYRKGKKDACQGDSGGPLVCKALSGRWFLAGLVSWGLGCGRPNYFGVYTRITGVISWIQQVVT
Recall that pKi is obtained by taking minus log10 of the concentration measured in molar.

• N=C(N)c1cccc(C[C@H](NS(=O)(=O)c2cccc(NC(=O)CCN)c2)C(=O)N2CCC(CCNC(=O)Nc3ccccc3)CC2)c1 = 5.72
• N=C(N)c1cccc(C[C@H](NS(=O)(=O)c2cccc(NC(=O)CCN)c2)C(=O)N2CCC(NC(=O)Nc3ccccc3)CC2)c1 = 5.89

Note: attention shifts to another entry.
Q: Lab note: need pKi for CNC(=O)CCCC1CCN(C(=O)[C@H](Cc2cccc(C(=N)N)c2)NS(=O)(=O)c2cccc(-c3cccc(Cl)c3Cl)c2)CC1 on Transmembrane protease serine 6 (Homo sapiens), anyone have it?
Ans: 6.12
